# maps each entry to its IC50
EXPERIMENTAL TARGET: human recombinant PARG (Homo sapiens (Human))
Sequence (Q86W56 whole entry): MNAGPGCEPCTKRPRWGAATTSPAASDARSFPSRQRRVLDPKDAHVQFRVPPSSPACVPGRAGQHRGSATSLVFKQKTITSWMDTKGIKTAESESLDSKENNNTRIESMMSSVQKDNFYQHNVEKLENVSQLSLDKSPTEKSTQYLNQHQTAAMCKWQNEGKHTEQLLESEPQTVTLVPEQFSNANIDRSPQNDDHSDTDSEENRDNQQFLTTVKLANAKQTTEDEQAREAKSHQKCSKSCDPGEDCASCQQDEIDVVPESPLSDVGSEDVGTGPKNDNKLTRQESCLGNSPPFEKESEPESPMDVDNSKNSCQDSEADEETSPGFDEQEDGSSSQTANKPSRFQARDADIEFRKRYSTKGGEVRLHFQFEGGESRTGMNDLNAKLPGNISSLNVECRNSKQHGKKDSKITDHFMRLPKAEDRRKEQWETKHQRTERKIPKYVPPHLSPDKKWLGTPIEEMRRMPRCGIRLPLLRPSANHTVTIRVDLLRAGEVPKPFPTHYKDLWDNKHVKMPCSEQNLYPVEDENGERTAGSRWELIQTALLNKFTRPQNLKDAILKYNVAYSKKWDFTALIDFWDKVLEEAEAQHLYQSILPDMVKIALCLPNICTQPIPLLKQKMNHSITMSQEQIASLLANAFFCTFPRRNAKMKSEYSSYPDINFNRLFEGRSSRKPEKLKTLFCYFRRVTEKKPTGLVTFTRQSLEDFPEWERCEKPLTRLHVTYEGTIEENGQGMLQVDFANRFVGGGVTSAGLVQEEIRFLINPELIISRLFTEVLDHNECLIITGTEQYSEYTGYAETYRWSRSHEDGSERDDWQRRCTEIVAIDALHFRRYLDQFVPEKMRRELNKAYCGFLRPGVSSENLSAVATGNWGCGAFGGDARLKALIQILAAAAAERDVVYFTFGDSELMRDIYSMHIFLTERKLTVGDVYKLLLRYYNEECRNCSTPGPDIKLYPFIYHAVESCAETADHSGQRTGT
ASSAY INFO: PARG Activity Assay
PARTICULARS: recombinant human PARG 0.0185 nM, 1 hour pre-incubation, poly (ADP-ribose) substrate-coated plate, Abs 450
Reply with just the number (in nM).

Guide cases for IC50, answers given:
Cc1ncc(Cn2c(=O)c3cc(S(=O)(=O)NC4(C)CC4)sc3n(Cc3cc4n(n3)CCOC4)c2=O)s1; 130
COCc1ncc(Cn2c(=O)n(Cc3cnn(C)c3)c(=O)c3cc(S(=O)(=O)NC4(C)CC4)sc32)s1; 260
CN(C)c1ccc(Cn2c(=O)n(Cc3cnn(C)c3)c(=O)c3cc(S(=O)(=O)NC4(C)CC4)sc32)cc1F; 120

Could you now look at the following molecule, please?
For the molecule Cn1cc(Cn2c(=O)c3cc(S(=O)(=O)NC4(C)CC4)sc3n(Cc3cc4n(n3)CCOC4)c2=O)cn1 , what IC50 is on record?
35
